Cited source for all entries: paper PMC10991105

# TARGET_ENTITY: tyrosinase
# Construct: tyrosinase of unstated source and supplier
# ASSAY_PROTOCOL: L-tyrosine oxidation, absorbance at […] nm
# CONDITION_NOTES: L-tyrosine substrate (0.1 mg/mL stock, 40 μL in 200 μL); PBS; 37 °C; 30 min
MEASUREMENT_LABEL: pIC50
Note on units: pIC50 is unitless, being -log10 of a concentration expressed in mol/L.

### Prompt State the measured pIC50 (tyrosinase) of CCCCCCCCCCCC(=O)OC[C@H]1O[C@H](Oc2ccc(O)cc2)[C@H](O)[C@@H](O)[C@@H]1O
### Response 4.46
